# test: Snapshot in vivo PK, dried blood spots, LC-MS/MS
# protocol-conditions: mouse, po, 10 mg/kg
observed-property: AUC(0-inf) (ng·h/mL)
One number for each entry, in ng·h/mL.

Ask | Record request: AUC(0-inf) value, item COc1ccc(/N=C(\N)CC(O)c2cc3c(F)cc(F)cc3c3cc(C(F)(F)F)ccc23)cc1.Cl (stereo not shown) [Compound 22]
Reply | 365

* * *

# test: Snapshot in vivo PK, dried blood spots, LC-MS/MS
# protocol-conditions: mouse, po, 10 mg/kg, ke, single oral dose 10 mg/kg, mouse II
observed-property: k el (s⁻¹)
Numbers only, in s⁻¹.

Ask | Record request: k el value, item COc1ccc(/N=C(\N)CC(O)c2cc3c(F)cc(F)cc3c3cc(C(F)(F)F)ccc23)cc1.Cl (stereo not shown) [Compound 22]
Reply | 3.66e-05
